Source: patent US9630922B2

# Target under test: HDAC6 (Homo sapiens)
# Construct: Full length human recombinant HDAC6 protein was expressed in baculoviral system
# Sequence (Q9UBN7 whole entry): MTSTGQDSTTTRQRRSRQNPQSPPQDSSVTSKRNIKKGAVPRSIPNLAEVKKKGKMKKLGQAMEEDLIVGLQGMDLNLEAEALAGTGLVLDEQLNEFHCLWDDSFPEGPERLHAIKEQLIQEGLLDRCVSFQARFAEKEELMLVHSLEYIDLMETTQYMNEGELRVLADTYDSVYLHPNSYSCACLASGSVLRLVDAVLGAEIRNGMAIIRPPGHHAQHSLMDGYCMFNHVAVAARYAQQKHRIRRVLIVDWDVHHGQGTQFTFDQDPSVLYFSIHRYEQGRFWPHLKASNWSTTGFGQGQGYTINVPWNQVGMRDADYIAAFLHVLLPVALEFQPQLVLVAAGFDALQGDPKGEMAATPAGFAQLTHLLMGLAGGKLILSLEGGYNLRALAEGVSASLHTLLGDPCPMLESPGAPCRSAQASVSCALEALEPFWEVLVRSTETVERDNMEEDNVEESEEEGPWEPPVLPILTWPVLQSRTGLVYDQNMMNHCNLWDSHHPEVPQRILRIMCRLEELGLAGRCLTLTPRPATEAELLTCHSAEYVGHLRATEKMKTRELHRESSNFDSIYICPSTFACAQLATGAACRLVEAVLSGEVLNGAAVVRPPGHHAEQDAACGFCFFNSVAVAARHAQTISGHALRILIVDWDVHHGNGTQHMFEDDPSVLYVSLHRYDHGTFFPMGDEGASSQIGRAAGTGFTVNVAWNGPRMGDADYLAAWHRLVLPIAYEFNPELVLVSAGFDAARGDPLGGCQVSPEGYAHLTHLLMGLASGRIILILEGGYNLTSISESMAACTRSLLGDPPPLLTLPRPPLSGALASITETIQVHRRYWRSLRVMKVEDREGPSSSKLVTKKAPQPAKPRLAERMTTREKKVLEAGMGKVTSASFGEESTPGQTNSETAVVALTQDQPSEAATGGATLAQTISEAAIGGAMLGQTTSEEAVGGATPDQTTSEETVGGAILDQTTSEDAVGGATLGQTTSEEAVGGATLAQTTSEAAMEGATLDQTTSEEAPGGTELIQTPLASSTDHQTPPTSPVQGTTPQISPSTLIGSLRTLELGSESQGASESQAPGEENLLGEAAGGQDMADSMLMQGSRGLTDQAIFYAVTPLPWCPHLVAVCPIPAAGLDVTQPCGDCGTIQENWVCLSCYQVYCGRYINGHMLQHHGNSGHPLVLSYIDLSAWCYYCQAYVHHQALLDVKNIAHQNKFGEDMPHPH
# Experiment: In vitro Histone Deacetylase Assay (enzymatic HDAC6 electrophoretic mobility shift assay)
# Condition info: full length human recombinant HDAC6, 1 nM enzyme, 2 μM peptide substrate RHKK(Ac)-NH2, 25° C.; read-out: HDAC6 activity range
pIC50: −log10 of the molar value.
Record form. Attribute: pIC50. Fill in for each entry.

The measured pIC50 associated with CCN1CC[C@@]2(CCc3cc(C(=O)NO)ccc3C2)C1=O [Compound I-162] reads ≥ 7.00

// recorded pIC50 for O=C(NO)c1ccc2c(c1)CC[C@@]1(CCN(CC(F)(F)F)C1=O)C2 [Compound I-166] : 6.30 to 7.00

Value of pIC50 reported for the molecule COc1ccccc1CN1CC[C@@]2(CCc3cc(C(=O)NO)ccc3C2)C1=O [Compound I-72] is ≥ 7.00

Record summary for O=C(NO)c1ccc2c(c1)CCC1(CCN(CC3CCOCC3)C1=O)S2(=O)=O (centres unmarked) [Compound I-241] : reported pIC50 = < 6.30

In plain terms, O=C(NO)c1ccc2c(c1)CC[C@]1(CCN(Cc3cccnc3)C1=O)C2 [Compound I-18] has a documented pIC50 of ≥ 7.00

Memo: N#Cc1ccc(N2CC[C@@]3(CCc4cc(C(=O)NO)ccc4C3)C2=O)cc1 [Compound I-173] , reported pIC50: ≥ 7.00

// recorded pIC50 for O=C(NO)c1ccc2c(c1)CCC1(CCNC1=O)S2(=O)=O (centres unmarked) [Compound I-243] : < 6.30

Just so you know, measured pIC50 for Cc1cncc(N2CC[C@]3(CCc4cc(C(=O)NO)ccc4C3)C2=O)c1 [Compound I-135] came out at ≥ 7.00

Reported pIC50 ( O=C(NO)c1ccc2c(c1)CC[C@]1(CCN(Cc3ccc(S(=O)(=O)C(F)(F)F)cc3)C1=O)C2 [Compound I-106] ) = ≥ 7.00

The molecule CC(C)n1c(CN2CC[C@@]3(CCc4cc(C(=O)NO)ccc4C3)C2=O)nc2ccccc21 [Compound I-73] showed pIC50 equal to ≥ 7.00

Lookup result for CN(C)c1ccc(N2CC[C@]3(CCc4cc(C(=O)NO)ccc4C3)C2=O)cn1 [Compound I-151] ; measured pIC50: ≥ 7.00

Noted for O=C(NO)c1ccc2c(c1)CCC1(CCN(C(=O)C3CCCCC3)CC1)O2 [II-3] : its pIC50 reads < 6.30

# molecule O=C(NO)c1ccc2c(c1)CC[C@]1(CCN(Cc3ccccc3C(F)(F)F)C1=O)C2 [Compound I-39] ; its pIC50 = ≥ 7.00

So, CC(C)CN1CCCC2(CCc3cc(C(=O)NO)ccc3C2)C1=O (single isomer, unassigned) [Compound I-190] ? Its pIC50 was ≥ 7.00

Record O=C(NO)c1ccc2c(c1)CC[C@@]1(CCN(CC(=O)N3CCOCC3)C1=O)C2 [Compound I-71] . Reported pIC50: 6.30 to 7.00

molecule CSc1cccc(N2CC[C@]3(CCc4cc(C(=O)NO)ccc4C3)C2=O)c1 [Compound I-92] , pIC50 observed: ≥ 7.00

Record O=C(NO)c1ccc2c(c1)CC[C@]1(CCN(Cc3c(Cl)cccc3Cl)C1=O)C2 [Compound I-49] . Reported pIC50: ≥ 7.00
